Test system: MDA-MB-231 cells
Assay Notes: Cell Activity Test 1: pNP-AMP hydrolysis on MDA-MB-231 cells, absorbance at 405
Format: cell-based
Condition Notes: Homo sapiens, 1 hour pre-incubation, 0.25 mM pNP-AMP, 5 hours of reaction, read-out: MDA-MB-231 cell biochemical IC50
In this section we review reported IC50 values for a set of compounds.

| Compound | Tgt | IC50, nM |
| --- | --- | --- |
| O=c1[nH]c2cnc3c4c(ccc3c2n1Cc1ccc(P(=O)(O)O)c(F)c1)OCO4 [Compound 1] | MDA-MB-231 cells | 1.12 |
| COc1ccc2c(ncc3[nH]c(=O)n(Cc4ccc(P(=O)(O)O)c(F)c4)c32)n1 [Control Compound, reference compound] | MDA-MB-231 cells | 9.78 |
